- System: TK-10 renal
- RUN_DESCRIPTION: NCI tumour cell line growth inhibition, 48 h
MEASURED_METRIC: TGI (µM)
Express the result in µM but write the number alone.

Reference set (2 entries):
COMPOUND	OBSERVED_MEASUREMENT
COC(=O)[C@@]12OC[C@]34C([C@@H](O)C1O)[C@@]1(C)CC(=O)C(O)=C(C)C1C[C@H]3OC(=O)[C@H](OC(=O)CC(C)C(F)(F)F)[C@H]42 (some centres undefined)	1.29
COc1cc(Oc2c(O)c(C)c(OC)c(C(C)=O)c2O)c(C(C)=O)c(O)c1C	86.7

Would you kindly look at the next entry?
Could you tell me which TGI is on file for `CCOC(CCCN1CCC2(CC1)C(=O)N(C)CN2c1ccccc1)(OCC)c1ccc(F)cc1` ? 22.2
